From: ChEMBL document CHEMBL4837181

run.description: Dissociation constant, pKa of the compound
Type: physicochemical
readout: pKa
Give your answer as a number; write no unit.

## Input Give its pKa value. Item: `CCOC(=O)[C@@H](Cc1cn(C)c2ccccc12)NC(=O)[C@@H](N)CC(C)C.Cl`
## Output 7.76

----------
run.description: Drug metabolism in CD1 mouse hepatocytes assessed as unmetabolized compound at 10 uM incubated for 120 mins by UPLC-QTOF-PDA analysis
Format: ADME, cell-based, Hepatocyte
condition.info: read-out: Drug metabolism
readout: remaining at 2 h, 10 µM (%)
Return type: number; implicit unit %.

## Input Give its remaining at 2 h, 10 µM value. Item: `CCOC(=O)[C@@H](Cc1cn(C)c2ccccc12)NC(=O)[C@@H](N)CC(C)C.Cl`
## Output 0.3
